- target_under_test: Relaxin receptor 1 (Homo sapiens)
- procedure_summary: Agonist activity at RXFP1 receptor (unknown origin) expressed in HEK293 cells assessed as stimulation of cAMP production incubated for 30 mins by TR-FRET based HTRF assay relative to forskolin
- Assay type: functional, cell-based
// %max lookup, one value per entry

Known results for compounds:
O=C(Nc1ccc([N+](=O)[O-])cc1)c1ccccc1NC(=O)C1CCCCC1	56%
O=C(Nc1cccc(C(F)(F)F)c1)c1ccccc1NC(=O)c1cccc2ccccc12	81%

Read the next record carefully.
Recorded %max for CC(C)(C)OC(=O)N1CCN(CCOc2ccccc2C(=O)Nc2ccccc2C(=O)Nc2cccc(C(F)(F)F)c2)CC1 , please?
94%

* * *

Quick reference for AC50 among some compounds
- target_under_test: Relaxin receptor 1 (Homo sapiens)
- Sequence (Q9HBX9 whole entry): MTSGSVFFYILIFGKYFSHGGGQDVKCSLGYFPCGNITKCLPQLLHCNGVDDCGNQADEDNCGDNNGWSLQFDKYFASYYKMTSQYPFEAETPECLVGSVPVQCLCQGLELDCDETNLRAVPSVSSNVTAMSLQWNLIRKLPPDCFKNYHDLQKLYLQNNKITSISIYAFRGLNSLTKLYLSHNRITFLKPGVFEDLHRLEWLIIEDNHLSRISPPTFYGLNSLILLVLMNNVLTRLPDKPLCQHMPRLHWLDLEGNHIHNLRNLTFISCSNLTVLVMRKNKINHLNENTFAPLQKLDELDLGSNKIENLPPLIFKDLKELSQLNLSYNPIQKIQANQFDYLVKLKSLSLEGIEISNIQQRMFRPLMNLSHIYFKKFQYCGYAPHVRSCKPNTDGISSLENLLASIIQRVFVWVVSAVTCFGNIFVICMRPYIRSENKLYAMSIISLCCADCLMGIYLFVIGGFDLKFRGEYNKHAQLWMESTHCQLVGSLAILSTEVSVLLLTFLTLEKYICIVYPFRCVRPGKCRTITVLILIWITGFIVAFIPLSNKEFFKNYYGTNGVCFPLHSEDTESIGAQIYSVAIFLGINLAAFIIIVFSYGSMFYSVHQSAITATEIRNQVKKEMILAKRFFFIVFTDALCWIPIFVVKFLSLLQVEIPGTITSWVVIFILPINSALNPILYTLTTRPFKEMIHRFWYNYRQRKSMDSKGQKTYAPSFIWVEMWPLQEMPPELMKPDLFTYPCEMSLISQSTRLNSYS
- procedure_summary: Agonist activity at RXFP1 receptor (unknown origin) expressed in HEK293 cells assessed as stimulation of cAMP production incubated for 30 mins by TR-FRET based HTRF assay
- Format: functional, cell-based
- experimental_context: read-out: AC50
Please state the figure in µM; there is no need to write the unit.

Guide cases for AC50, answers given:
COc1ccccc1C(=O)Nc1ccccc1C(=O)Nc1cccc(N2CCCCC2)c1	5.29
O=C(Nc1ccccc1C(=O)Nc1cccc(C(F)(F)F)c1)c1ccc(Br)cc1	4.2

What value of AC50 has been recorded for this entry: CCOc1ccccc1C(=O)NCCC(=O)Nc1cccc(S(=O)(=O)C(F)(F)F)c1
4.71
